The reported numbers originate from paper PMC12057046.

B1: KIAA1614 peptide 568-583 (uncharacterized protein KIAA1614), 16-mer library wild type / USP8 rhodanese domain (ubiquitin carboxyl-terminal hydrolase 8, residues 174-317) (parent)
chain 1: GMERVLGGLSSPLRLL
chain 2: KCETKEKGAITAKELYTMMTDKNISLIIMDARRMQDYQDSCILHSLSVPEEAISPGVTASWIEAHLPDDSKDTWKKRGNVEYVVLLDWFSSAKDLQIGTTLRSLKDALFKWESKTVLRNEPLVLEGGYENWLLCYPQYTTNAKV

Variants of: B1
Assay: peptide-phage display deep mutational scan (M13, 16-mer library, displayed with a C-terminal GGGSG linker encoded by the 3' flank) selected against the GST-tagged USP8 rhodanese domain, four rounds; NGS counts summed over selection …
Settings: with USP8 rhodanese domain (ubiquitin carboxyl-terminal hydrolase 8, residues 174-317), 10 µg GST-bait on MaxiSorp, pre-cleared on GST, 2 h at 4 °C, five washes with 0.05% Tween 20 in PBS, not graded, scale: average over two replicas of the peptide's fractional NGS count
ENDPOINT_LABEL: screen value

In the examples that follow, each entry is paired with its recorded screen value.
MACROMOLECULE_SEQUENCE	screen value
chain 1 GMERKLGGLSSPLRLL [chain 1 V5K]	6.6e-05
chain 1 GMERVLYGLSSPLRLL [chain 1 G7Y]	0.000924
chain 1 GMEWVLGGLSSPLRLL [chain 1 R4W]	5.05e-05
chain 1 GKERVLGGLSSPLRLL [chain 1 M2K]	0.00296
chain 1 GMERVLGGLSSPLRLF [chain 1 L16F]	2.53e-05

[1] chain 1 GMETVLGGLSSPLRLL [chain 1 R4T]
[2] chain 1 GMERVLGGGSSPLRLL [chain 1 L9G]
Quick one: lower screen value, 1 or 2 ? Reply with the label of the item you choose.
1
(1: 6.32e-06, 2: 9.76e-05)
